Biological target: Alpha-2C adrenergic receptor (Homo sapiens)
Sequence (P18825 whole entry): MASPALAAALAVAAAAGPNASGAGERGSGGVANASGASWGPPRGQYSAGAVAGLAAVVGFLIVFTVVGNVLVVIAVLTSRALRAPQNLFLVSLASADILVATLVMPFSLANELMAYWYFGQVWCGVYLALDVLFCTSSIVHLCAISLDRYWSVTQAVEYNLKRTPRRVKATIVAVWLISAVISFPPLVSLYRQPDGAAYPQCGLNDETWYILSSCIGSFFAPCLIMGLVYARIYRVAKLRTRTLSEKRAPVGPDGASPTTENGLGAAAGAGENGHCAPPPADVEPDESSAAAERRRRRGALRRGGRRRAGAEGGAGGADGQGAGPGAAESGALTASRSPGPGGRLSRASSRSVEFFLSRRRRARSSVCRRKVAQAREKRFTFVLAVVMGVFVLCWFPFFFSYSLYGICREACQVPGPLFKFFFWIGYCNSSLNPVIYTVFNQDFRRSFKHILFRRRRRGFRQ
Assay: Selectivity interaction (Enzyme panel (GPCRS, ion channels, and transporters)) EUB0000194b ADRA2C
pKi: −log10 of the molar value.
Reported metric: pKi

# get_value(readout='pKi', item= "COc1cc2c(NC3CCN(C(C)C)CC3)nc(N3CCC(F)(F)CC3)nc2cc1OCCCN1CCCC1" )
< 5.00
